Entry source: patent US9271962B2

target: ΔTM rFAAH (Rattus norvegicus, UniProt P97612); construct: 15 ug of ΔTM rFAAH (cell lysate obtained by recombinant procedure); made in house; test: Fluorescent enzyme assay, FAAH (AAMCA hydrolysis); assay type: biochemical; details: 10 nM inhibitor; AAMCA substrate; screening assay
Mark YES for reported inhibition at 0.01 µM of 80% or greater; mark NO for anything smaller.

Examples from the recorded data:
CN(C)C(=O)n1nnc(Cc2ccc(I)cc2)n1 [Compound 18a]
YES
CN(CCCCCl)C(=O)n1cnc(-c2ccccc2)c1 [Compound 47]
NO
CN(C)C(=O)n1nnc(Cc2ccc(Cl)cc2Cl)n1 [Compound 17a]
YES
CN(C)C(=O)n1nnnc1Cc1ccc([N+](=O)[O-])cc1 [Compound 22b]
YES

Check the entry CN(C)C(=O)n1nnnc1Cc1cccnc1 [Compound 5] : does inhibition at 0.01 µM equal or exceed 80%? YES

Check the entry CN(C)C(=O)n1nnc(Cc2ccc(C(F)(F)F)cc2)n1 [Compound 20a] : does inhibition at 0.01 µM equal or exceed 80%? YES

Check the entry CN(C)C(=O)n1nnc2ccccc21 [Compound 28] : does inhibition at 0.01 µM equal or exceed 80%? NO

Check the entry CN(C)C(=O)n1nnnc1CC(=O)c1ccccc1 [Compound 4] : does inhibition at 0.01 µM equal or exceed 80%? YES

Check the entry CN(C)C(=O)n1nnc(Cc2ccccc2)n1 [Compound 34] : does inhibition at 0.01 µM equal or exceed 80%? YES

----------
target: ΔTM rFAAH (Rattus norvegicus, UniProt P97612); construct: 15 ug of ΔTM rFAAH (cell lysate obtained by recombinant procedure); made in house; assay: Fluorescent enzyme assay, FAAH (AAMCA hydrolysis); format: biochemical; settings: 10 nM inhibitor; AAMCA substrate; screening assay
MEASURED_PARAMETER: inhibition at 0.01 µM (%)
Note: unit % is implicit; provide only the numeric part.

In the examples that follow, each entry is paired with its recorded inhibition at 0.01 µM.
CN(C)C(=O)Oc1ccc(Cc2nnnn2C(=O)N(C)C)cc1 [Compound 36b]
82
O=C(N1CCOCC1)n1nnc(Cc2ccc(Cl)cc2Cl)n1
94
CN(C)C(=O)n1nnnc1Cc1ccc(I)cc1 [Compound 18b]
86
COc1ccc(Cc2nnn(C(=O)N(C)C)n2)cc1 [Compound 24a]
47

Lab note: next compound to report on.
Recorded inhibition at 0.01 µM for CCN(CC)C(=O)n1nnc(Cc2ccc(Cl)cc2Cl)n1 , please? 95

----------
Target: ΔTM rFAAH (Rattus norvegicus)
Construct: 15 ug of ΔTM rFAAH (cell lysate obtained by recombinant procedure); made in house
Sequence (P97612 30-579 limits assumed): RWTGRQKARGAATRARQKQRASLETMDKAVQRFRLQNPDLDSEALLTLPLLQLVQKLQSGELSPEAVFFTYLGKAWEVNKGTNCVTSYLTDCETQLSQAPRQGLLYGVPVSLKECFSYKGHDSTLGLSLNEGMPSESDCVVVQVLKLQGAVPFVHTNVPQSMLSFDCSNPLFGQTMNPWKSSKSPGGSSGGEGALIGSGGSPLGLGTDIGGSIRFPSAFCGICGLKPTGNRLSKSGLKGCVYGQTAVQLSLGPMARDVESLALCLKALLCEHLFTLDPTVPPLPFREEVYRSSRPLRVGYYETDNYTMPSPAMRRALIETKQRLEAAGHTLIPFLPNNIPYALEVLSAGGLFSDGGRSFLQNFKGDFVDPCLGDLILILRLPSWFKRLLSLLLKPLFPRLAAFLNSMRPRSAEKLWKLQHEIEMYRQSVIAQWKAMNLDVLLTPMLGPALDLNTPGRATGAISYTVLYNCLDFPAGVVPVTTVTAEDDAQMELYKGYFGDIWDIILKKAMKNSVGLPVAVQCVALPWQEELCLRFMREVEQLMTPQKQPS
Experiment: Fluorescent enzyme assay, FAAH (AAMCA hydrolysis)
Type: biochemical
Details: 1000 nM inhibitor; AAMCA substrate; screening assay
Mark t for reported inhibition at 1 µM of 90% or greater; mark f for anything smaller.

O=C(N1CCN(Cc2ccccc2)CC1)n1nnc(Cc2ccc(Cl)cc2Cl)n1 [Compound 15]
t
CN(C)C(=O)N1CC(C(C)(C)C)OC1=O (stereo not shown) [Compound 31]
f
CN(C)S(=O)(=O)n1nnc(Cc2ccc(-c3ccccc3)cc2)n1 [Compound 38a]
f

Check the entry COc1ccc(Cc2nnnn2C(=O)N(C)C)cc1 [Compound 24b] : does inhibition at 1 µM equal or exceed 90%? t

Check the entry O=C(N(c1ccccc1)c1ccccc1)n1nnnc1Cc1ccc(Cl)cc1Cl [Compound 8b] : does inhibition at 1 µM equal or exceed 90%? f

----------
molecular target: ΔTM rFAAH (Rattus norvegicus); construct: 15 ug of ΔTM rFAAH (cell lysate obtained by recombinant procedure); made in house; assay: Fluorescent enzyme assay, FAAH (AAMCA hydrolysis); format: biochemical; details: 10 nM inhibitor; AAMCA substrate; screening assay
Mark yes (1) for reported inhibition at 0.01 µM of 90% or greater; mark no (0) for anything smaller.

Examples from the recorded data:
CN(C)C(=O)n1ncnn1 [Compound 1a, N,N-dimethyl-2H-tetrazole-2-carboxamide]
no (0)
CN(CCCCN=C=S)C(=O)n1cnc(-c2ccccc2)c1
no (0)

Check the entry CN(C)C(=O)n1nnnc1Cc1ccc(Cl)cc1 [Compound 21b] : does inhibition at 0.01 µM equal or exceed 90%? yes (1)

Check the entry CN(C)C(=O)n1nnnc1-c1cc2ccccc2[nH]1 : does inhibition at 0.01 µM equal or exceed 90%? yes (1)

----------
biological target: hMGL (Homo sapiens, UniProt Q99685); construct: A full-length cDNA clone of the human MGL transcript variant 1; assay: Fluorescent enzyme assay, MGL (AHMMCE hydrolysis); conditions: eight-point dose response; AHMMCE substrate
MEASURED_PARAMETER: pIC50
The value called pIC50 is obtained by taking minus log10 of the concentration in mol/L.

Recorded pIC50 for O=C(N(c1ccccc1)c1ccccc1)n1nnc(Cc2ccc(Cl)cc2Cl)n1 [Compound 8a] , please? 7.40

----------
Catalogue of molecules with associated inhibition at 0.01 µM
Molecular target: hMGL (Homo sapiens, UniProt Q99685)
Construct: A full-length cDNA clone of the human MGL transcript variant 1; made in house; host or cells: E. coli BL21 (DE3)
Sequence (Q99685 2-303 limits assumed): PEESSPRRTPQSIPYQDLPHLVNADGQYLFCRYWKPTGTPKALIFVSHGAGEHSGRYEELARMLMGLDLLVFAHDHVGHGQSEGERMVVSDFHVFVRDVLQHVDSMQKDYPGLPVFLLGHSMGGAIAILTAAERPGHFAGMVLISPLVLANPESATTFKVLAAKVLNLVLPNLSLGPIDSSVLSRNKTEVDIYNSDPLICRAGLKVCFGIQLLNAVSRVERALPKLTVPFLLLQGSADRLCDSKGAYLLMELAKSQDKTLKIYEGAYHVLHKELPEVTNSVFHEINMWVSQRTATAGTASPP
Experiment: Fluorescent enzyme assay, MGL (AHMMCE hydrolysis)
Assay type: biochemical
Conditions: 10 nM inhibitor; AHMMCE substrate; screening assay; read-out: % Inhibition of Enzyme by inhibitor, MGL, 10 nM
Note: unit % is implicit; provide only the numeric part.

CCN(CC)C(=O)n1nnc(Cc2ccc(Cl)cc2Cl)n1
43
CN(C)C(=O)n1nnnc1Cc1ccc([N+](=O)[O-])cc1 [Compound 22b]
22
O=C(N1CCOCC1)n1nnc(Cc2ccc(Cl)cc2Cl)n1
88
CN(C)C(=O)n1nnnc1Cc1ccccc1
41
CSc1ccc(Cc2nnnn2C(=O)N(C)C)cc1 [Compound 23b]
60
CN(C)C(=O)n1nnc(Cc2ccccc2)n1
100
CN(CCCCCl)C(=O)n1cnc(-c2ccccc2)n1
13
CN(C)C(=O)n1nnnc1Cc1ccc(Cl)cc1Cl [Compound 17b]
97
CN(C)C(=O)n1nnc(Cc2ccc(OC(F)(F)F)cc2)n1 [Compound 19a]
99

Lab note: next molecule to report on.
Recorded inhibition at 0.01 µM for CN(C)C(=O)n1nnc(Cc2ccc(C(F)(F)F)cc2)n1 [Compound 20a] , please? 98

----------
Target: ΔTM rFAAH (Rattus norvegicus)
Construct: 15 ug of ΔTM rFAAH (cell lysate obtained by recombinant procedure); made in house
Sequence (P97612 30-579 limits assumed): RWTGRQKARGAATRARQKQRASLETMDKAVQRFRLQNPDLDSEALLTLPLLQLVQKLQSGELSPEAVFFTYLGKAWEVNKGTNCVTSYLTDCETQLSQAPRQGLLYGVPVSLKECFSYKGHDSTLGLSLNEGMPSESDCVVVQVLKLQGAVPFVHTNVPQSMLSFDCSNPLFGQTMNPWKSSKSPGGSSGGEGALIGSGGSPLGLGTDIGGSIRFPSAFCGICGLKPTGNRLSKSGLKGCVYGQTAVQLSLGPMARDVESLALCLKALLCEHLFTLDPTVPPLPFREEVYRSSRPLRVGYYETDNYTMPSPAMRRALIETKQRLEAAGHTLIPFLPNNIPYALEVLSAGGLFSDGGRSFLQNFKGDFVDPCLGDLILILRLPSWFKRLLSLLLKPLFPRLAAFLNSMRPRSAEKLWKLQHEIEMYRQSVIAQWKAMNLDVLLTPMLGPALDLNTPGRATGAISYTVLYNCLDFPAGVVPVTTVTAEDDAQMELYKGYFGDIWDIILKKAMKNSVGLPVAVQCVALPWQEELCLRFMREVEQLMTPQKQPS
Assay: Fluorescent enzyme assay, FAAH (AAMCA hydrolysis)
Format: biochemical
Settings: 10 nM inhibitor; AAMCA substrate; screening assay
Catalogue of compounds with associated inhibition at 0.01 µM
Note: unit % is implicit; provide only the numeric part.

In the examples that follow, each entry is paired with its recorded inhibition at 0.01 µM.
CN(C)C(=O)n1nnnc1Cc1ccc(Cl)cc1Cl [Compound 17b]
86
CSc1ccc(Cc2nnn(C(=O)N(C)C)n2)cc1 [Compound 23a]
91

Recorded inhibition at 0.01 µM for CN(C)C(=O)n1nnc(Cc2ccc(Cl)cc2)n1 [Compound 21a] , please? 93

Recorded inhibition at 0.01 µM for CN(C)C(=O)n1cnnn1 [Compound 1b] , please? 51

Recorded inhibition at 0.01 µM for CN(C)C(=O)n1nnc(Cc2ccc(OC(F)(F)F)cc2)n1 [Compound 19a] , please? 92
